# IC50 per entry
# Test method notes: General cytotoxicity, mitogen-stimulated murine spleenic lymphocytes
# Format: cell-based
# Condition parameters: mouse, mitogen-stimulated murine splenic lymphocytes

| Compound | Units text | IC50 |
| --- | --- | --- |
| Clc1ccc(C(c2ccccc2)N2CCN(CCNc3ccnc4cc(Cl)ccc34)CC2)cc1 (centres unmarked) | nM | 1400 |
| Clc1ccc2c(NCCCN3CCCN(C(c4ccccc4)c4ccccc4)CC3)ccnc2c1 | nM | 700 |
| Clc1ccc2c(NCCN3CCN(C(c4ccccc4)c4ccccc4)CC3)ccnc2c1 | nM | 1900 |
| Clc1ccc2c(NCCCN3CCN(C(c4ccccc4)c4ccccc4)CC3)ccnc2c1 | nM | 1100 |
| Clc1ccc(C(c2ccccc2)N2CCN(CCCNc3ccnc4cc(Cl)ccc34)CC2)cc1 (centres unmarked) | nM | 800 |
| CN(CCCN1c2ccccc2CCc2ccccc21)CCNc1ccnc2cc(Cl)ccc12 | nM | 1400 |
| Clc1ccc2c(NCCCN3CCCN(C4c5ccccc5-c5ccccc54)CC3)ccnc2c1 | nM | 2500 |
| Clc1ccc2c(NCCN3CCCN(C4c5ccccc5-c5ccccc54)CC3)ccnc2c1 | nM | 2500 |

====

# Test system: P. falciparum Dd2 (CQR)
# Test method notes: Inhibition of P. falciparum growth
# Type: cell-based
# Condition parameters: Plasmodium falciparum, DD2, 72 h, read-out: IC50 (nM) for P. falciparum Dd2
Experimental endpoint: IC50 (nM)

| Compound | Experimental endpoint | Value reported |
| --- | --- | --- |
| Clc1ccc2c(NCCCN3CCC(NC(c4ccccn4)c4ccccn4)CC3)ccnc2c1 [Compound 22] | IC50 | 1.6 |
| CCN(CC)CCCC(C)Nc1ccnc2cc(Cl)ccc12 (centres unmarked) [CQ, chloroquine, reference compound] | IC50 | 102 |

====

# Test method notes: General cytotoxicity, mitogen-stimulated murine spleenic lymphocytes
# Assay type: cell-based
# Condition parameters: mouse, mitogen-stimulated murine splenic lymphocytes
pIC50: −log10 of the molar value.
# pIC50 per entry

| Compound | pIC50 |
| --- | --- |
| Fc1ccc(C(c2ccc(F)cc2)N2CCN(CCCNc3ccnc4cc(Cl)ccc34)CC2)cc1 [Compound 10] | 5.39 |
| CN(CCCNc1ccnc2cc(Cl)ccc12)CCCN1c2ccccc2CCc2ccccc21 [Compound 1] | 6.15 |
| Clc1ccc(C(c2ccccc2)N2CCCN(CCCNc3ccnc4cc(Cl)ccc34)CC2)cc1 (stereo not drawn) [Compound 9] | 6.05 |
